System: Escherichia coli TOP10;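 further: peptides expressed intracellularly from a pBAD plasmid library in pooled LB shake-flask culture, induced with 0.3% L-arabinose, DNA abundance read by NGS, three biological replicates, DESeq2 with apeglm shrinkage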
Assay: shrunken log2 fold change of peptide-encoding DNA abundance (4.5 h post-induction vs induction); higher = less antimicrobial activity (less host growth inhibition)
Details: time post-induction: 4.5 h; library: site-saturation at positions 5, 18, 19, 20
Parameter shrunken log2 fold change: see the listing below.

{"columns": ["RESIDUES", "shrunken log2 fold change"],
 "data": [
  ["RRIRTRPPRLPRPRPRPPMAPRP", 0.176],
  ["RRIRHRPPRLPRPRPRPGWQPRP", 0.33],
  ["RRIRWRPPRLPRPRPRPAQAPRP", 0.237]
]}

Name the reported shrunken log2 fold change value associated with the sequence RRIRHRPPRLPRPRPRPTLKPRP 1.82

Name the reported shrunken log2 fold change value associated with the sequence RRIRFRPPRLPRPRPRPSDAPRP -0.00375

Name the reported shrunken log2 fold change value associated with the sequence RRIRIRPPRLPRPRPRPGNTPRP -0.546

Name the reported shrunken log2 fold change value associated with the sequence RRIRKRPPRLPRPRPRPIVPPRP 0.269
